Assay: Inhibition of protein interaction between beta-catenin D145A mutant (unknown origin)/N-terminal biotinylated human BCL9 ( 350 to 375 residues) incubated for 1 hr by Alpha-screen competitive inhibition assay
VALUE KIND: pKi
Would you please state pKi, meaning minus log10 of the concentration in mol/L, as a bare number?

Cl.Cl.O=C(Nc1ccc(O[C@@H]2CCNC2)c(-c2cccc(-c3nn[nH]n3)c2)c1)c1ccc(O[C@H]2CCNC2)c(-c2ccc(F)c(F)c2)c1 :: 5.52

compound "Cl.Cl.O=C(Nc1ccc(O[C@H]2CCNC2)c(-c2ccc(F)cc2)c1)c1ccc(O[C@H]2CCNC2)c(-c2ccc3ccsc3c2)c1" , pKi observed: 5.38

compound "Cl.Cl.O=C(Nc1ccc(O[C@H]2CCNC2)c(-c2cccc(-c3nn[nH]n3)c2)c1)c1ccc(O[C@H]2CCNC2)c(-c2ccc(F)c(F)c2)c1" , pKi observed: 5.19

Measured values drawn from ChEMBL document CHEMBL4680104 for this set.
